System: HepG2 cells
ASSAY_PROTOCOL: HepG2 cytotoxicity assay
CONDITIONS: read-out: HepG2 cytotoxicity assay IC50; dose response confirmation
READOUT: IC50 (µM)
Express your answer in µM, writing the number without its unit.

Previously resolved entries follow.
CC1=CC(=O)[C@@H](O)[C@]2(C)[C@H]3[C@@]4(O)OC[C@@]35[C@@H](C[C@@H]12)OC(=O)C[C@H]5[C@@H](C)[C@H]4O [TCMDC-142261]; 26.3
Cc1[nH]c(C)c(-c2ccc(-c3cccc(C(F)(F)F)c3)nc2)c(=O)c1Br [TCMDC-135911]; 100
COc1ccc2nccc(N3CCC(CCNCc4ccc5c(n4)NC(=O)CS5)CC3)c2n1.Cl [TCMDC-141944]; 14.8

# molecule CC1CN(Cc2ccc(-c3ccc(-c4nc5cc(F)ccc5[nH]4)cc3)cc2)CC(C)O1.O=C(O)C(F)(F)F (stereo not drawn) [TCMDC-133831] ; its IC50 = 24.6

# molecule Cc1nc(C)c(-c2ccc(Oc3ccc(Cl)c(Cl)c3)cc2)c(O)c1Cl [TCMDC-137396] ; its IC50 = 17

# molecule CCCCCCCc1cc(=O)c2ccccc2[nH]1 [TCMDC-132026] ; its IC50 = 20.7

# molecule Cc1ccc(S(=O)(=O)N(CCCNCc2cccc(O)c2)c2ccccc2)cc1 [TCMDC-138022] ; its IC50 = 34.7

# molecule Cc1nc2nc(N)nc(N)c2c(C)c1Cc1ccc(N)cc1.Cl [TCMDC-137633] ; its IC50 = 0.08

---

Test system: HepG2 cells
ASSAY_PROTOCOL: HepG2 cytotoxicity assay
CONDITIONS: HepG2 cytotoxicity listed with the Pb ODA data set (this manuscript)
READOUT: Pb ODA (this manuscript) HepG2 cytoxicity

Previously resolved entries follow.
COc1nc2c(CCN3CC[C@H](NCc4ccc5c(c4)NC(=O)CO5)[C@H](O)C3)c(Cl)cnc2cc1F.Cl [TCMDC-135805]; 12.02 µM
Cc1noc(C)c1-c1ccc2c(Nc3ccc(C#N)cc3)c(C(N)=O)cnc2c1 [TCMDC-136029]; 69.18 µM
CN1CCN(c2ccc(Nc3ncc(Cl)c(Nc4cccnc4C(N)=O)n3)cc2)CC1.Cl [TCMDC-134164]; 4.62 µM

# molecule COc1ccc2c(=O)c(I)c(C)[nH]c2c1 [TCMDC-138141] ; its Pb ODA (this manuscript) HepG2 cytoxicity = 0.0017 µM

# molecule COc1c(C)[nH]c(C)c(-c2ccc(Oc3cccc(C(F)(F)F)c3)cc2)c1=O [TCMDC-135253] ; its Pb ODA (this manuscript) HepG2 cytoxicity = 1.30 µM

# molecule Br.CC1(C)NC(N)=NC(=N)N1OCCSc1ccccc1 [TCMDC-131670] ; its Pb ODA (this manuscript) HepG2 cytoxicity = 0.001 µM

# molecule Cc1nc(C)c(-c2ccc(Oc3ccc(OC(F)(F)F)cc3)cc2)c(OC(=O)c2ccc(CN(C)C)cc2)c1Cl [TCMDC-137382] ; its Pb ODA (this manuscript) HepG2 cytoxicity = 24.55 µM

---

Below are Is compound selective in assay? Pb ODA active? values measured for P. berghei ookinete development.

Br.CCC(ON1C(N)=NC(N)=NC1(C)C)c1ccc(Cl)cc1 (stereo not shown); 0 (key: 1: YES; 0: NO)
COc1cccc(CNCC(C)(C)c2nc(-c3ccc(Cl)c(O)c3)c(-c3ccncc3)[nH]2)c1.Cl; 0 (key: 1: YES; 0: NO)

The observed Is compound selective in assay? Pb ODA active? for Cc1[nH]c(C)c(-c2ccc(CCc3ccc(F)cc3F)cc2)c(=O)c1Br when tested with P. berghei ookinete development stands at 1 (key: 1: YES; 0: NO)

---

Test system: P. berghei ookinete development
CONDITIONS: primary screen at 1 μM, replicate A
Classes (% inhibition, Replicate A): bucket 1 (below 60%), bucket 2 (60% to below 90%), bucket 3 (90% or more)

Past entries and their recorded results:
COc1ccc2nccc([C@@H](O)CN3CCC(NCc4cc5c(F)ccc(F)c5[nH]4)CC3)c2c1.O=C(O)C(=O)O; bucket 1
COc1ccc2ncc(Cl)c(CCN3CCC(NCc4ccc5c(n4)NC(=O)CS5)CC3)c2c1.Cl; bucket 2
Cc1[nH]c(C)c(-c2ccc(Oc3ccc(F)cc3)cc2)c(=O)c1Cl; bucket 3
CCCC(C)n1ccc2c3c(N)nc(N)nc3ccc21 (centres unmarked); bucket 1
Cc1cc(Nc2cccc(C#N)c2)nc(Nc2ccccc2C)n1; bucket 1

Hi, small favor: classify Cc1cccc2nc(-c3ccc(-c4ccc(CN5CC(C)OC(C)C5)cc4)cc3)[nH]c12.O=C(O)C(F)(F)F (centres unmarked) by its % inhibition, Replicate A when you get a moment.
bucket 3

---

Reported values of IC50 for individual entries
System: HepG2 cells
ASSAY_PROTOCOL: HepG2 cytotoxicity assay
CONDITIONS: read-out: HepG2 cytotoxicity assay IC50; dose response confirmation
Express your answer in µM, writing the number without its unit.

Previously resolved entries follow.
CCCCCCCCc1c(C)[nH]c(C)c(C#N)c1=O; 34.7
COc1ccc2c(=O)c(I)c(C)[nH]c2c1; 0.0017

Now look at this one.
The observed IC50 for COc1ccc2nccc([C@@H](O)CN3CCC(NC(=O)c4ccc5cc[nH]c5c4)CC3)c2c1.CS(=O)(=O)O when tested with HepG2 cells stands at 100

---

System: P. berghei ookinete development
CONDITIONS: read-out: Pb Ookinete development assay IC50; dose response confirmation
Reported values of pIC50 for individual entries
In textbook form, pIC50 equals minus log to base ten of the concentration in mol/L.

Previously resolved entries follow.
CC(=O)Oc1c(Cl)c(C)nc(C)c1-c1ccc(Oc2ccc(Cl)cc2)cc1; 7.01
CC(C)N1CCN(CCCNc2c3ccccc3nc3ccccc23)CC1.Cl; 5.43
Cl.O=C1CSc2ccc(CNC3CCN(CCc4c(Cl)cnc5ccc(F)cc45)CC3)nc2N1; 5.52
Cc1[nH]c(C)c(-c2ccc(OCc3ccccc3)cc2)c(=O)c1Br; 6.65

The observed pIC50 for CCOC(=O)C1=C(C)NC2=C(C(=O)C(C(=O)OC)C(C)C2)C1c1cc(Br)c(OCC)c(OC)c1 (centres unmarked) when tested with P. berghei ookinete development stands at 5.04

The observed pIC50 for CC[C@H]1CN2CCc3cc(OC)c(OC)cc3[C@@H]2C[C@@H]1C[C@H]1NCCc2c1cc(OC)c(O)c2Cl when tested with P. berghei ookinete development stands at 6.57

The observed pIC50 for COc1ccc(Nc2ncc(OC)c(Nc3ccccc3C(N)=O)n2)cc1N1CCN(C)CC1.O=CO when tested with P. berghei ookinete development stands at 6.57

The observed pIC50 for Cc1[nH]c2ccccc2c1C(=O)C(C)Sc1n[nH]c(-c2ccccc2Br)n1 (centres unmarked) when tested with P. berghei ookinete development stands at 6.76

---

Test system: HepG2 cells
ASSAY_PROTOCOL: HepG2 cytotoxicity assay
CONDITIONS: unified HepG2 cytotoxicity across the three screens
Reported values of log10 of Unified cytotox for individual entries
Base-10 log of Unified cytotox, unit µM.

Previously resolved entries follow.
Nc1ccc2[nH]cc(C3CCN(CC4CCC(NC(=O)/C=C/c5ccc(Cl)c(Cl)c5)CC4)CC3)c2n1 (centres unmarked); 1.10
Cl.N=C1C=C(N)C(=O)c2ccccc21; -0.28
CCc1ccc(C2CCN(CCCCNC(=O)c3ccc(NC(=O)c4ccc(Cl)cc4)cc3)CC2)c(OCCO)c1; 0.73
Cc1ccc(Cn2ncc(N3CCCNCC3)c(Cl)c2=O)cc1NC(=O)Nc1ccc(-c2ccccc2)cc1; 0.90
COC(=O)c1ccc(-c2ccc(-c3cccnc3)cc2C)cc1; 0.56
CN1CCc2cc(NS(=O)(=O)c3ccc(-c4ccc(Cl)cc4)cc3)c(OCCCN3CCCCC3)cc2CC1.Cl; 0.35
COc1cc2nc(N3CCC(CNC(=O)c4ccc(-c5ccc(C(F)(F)F)cc5)cc4)CC3)nc(N)c2cc1OC; 0.69

Now look at this one.
# compound Cl.O=S(=O)(Nc1cc2c(cc1OCCCN1CCCCC1)CCNCC2)c1ccc(-c2ccc(Cl)cc2)cc1 ; its log10 of Unified cytotox = 0.64

---

Reported values of Pb ODA (this manuscript) HepG2 cytoxicity for individual entries
System: HepG2 cells
ASSAY_PROTOCOL: HepG2 cytotoxicity assay
CONDITIONS: HepG2 cytotoxicity listed with the Pb ODA data set (this manuscript)
Express your answer in µM, writing the number without its unit.

Cc1cc(=O)c(-c2ccc(Oc3cccc(OC(F)(F)F)c3)cc2)c(C)[nH]1 [TCMDC-137266]; 10.72
Br.CC1(C)NC(N)=NC(=N)N1OCCCOc1cccc(Cl)c1 [TCMDC-131762]; 0.001
CCOC(=O)N1CCN(CCCCNc2c3ccc(Cl)cc3nc3ccc(OC)cc23)CC1.Cl [TCMDC-137579]; 5.50
CC(=O)c1ccc(Nc2c(C(N)=O)cnc3cc(-c4c(C)noc4C)ccc23)cc1 [TCMDC-136058]; 100.00

# compound COc1cc(-c2nc(C(C)(C)CN)[nH]c2-c2ccncc2)ccc1Br.Cl [TCMDC-140674] ; its Pb ODA (this manuscript) HepG2 cytoxicity = 39.81

# compound COc1ccc2nc3cc(Cl)ccc3c(NCCCO)c2c1 [TCMDC-124144] ; its Pb ODA (this manuscript) HepG2 cytoxicity = 7.08

# compound Cc1[nH]c(C)c(-c2ccc(-c3ccc(Cl)cc3)cc2)c(=O)c1Cl [TCMDC-137416] ; its Pb ODA (this manuscript) HepG2 cytoxicity = 57.54

Values were extracted from paper PMC6753678.
